Target: UniProtKB P21447
Sequence (P21447 whole entry): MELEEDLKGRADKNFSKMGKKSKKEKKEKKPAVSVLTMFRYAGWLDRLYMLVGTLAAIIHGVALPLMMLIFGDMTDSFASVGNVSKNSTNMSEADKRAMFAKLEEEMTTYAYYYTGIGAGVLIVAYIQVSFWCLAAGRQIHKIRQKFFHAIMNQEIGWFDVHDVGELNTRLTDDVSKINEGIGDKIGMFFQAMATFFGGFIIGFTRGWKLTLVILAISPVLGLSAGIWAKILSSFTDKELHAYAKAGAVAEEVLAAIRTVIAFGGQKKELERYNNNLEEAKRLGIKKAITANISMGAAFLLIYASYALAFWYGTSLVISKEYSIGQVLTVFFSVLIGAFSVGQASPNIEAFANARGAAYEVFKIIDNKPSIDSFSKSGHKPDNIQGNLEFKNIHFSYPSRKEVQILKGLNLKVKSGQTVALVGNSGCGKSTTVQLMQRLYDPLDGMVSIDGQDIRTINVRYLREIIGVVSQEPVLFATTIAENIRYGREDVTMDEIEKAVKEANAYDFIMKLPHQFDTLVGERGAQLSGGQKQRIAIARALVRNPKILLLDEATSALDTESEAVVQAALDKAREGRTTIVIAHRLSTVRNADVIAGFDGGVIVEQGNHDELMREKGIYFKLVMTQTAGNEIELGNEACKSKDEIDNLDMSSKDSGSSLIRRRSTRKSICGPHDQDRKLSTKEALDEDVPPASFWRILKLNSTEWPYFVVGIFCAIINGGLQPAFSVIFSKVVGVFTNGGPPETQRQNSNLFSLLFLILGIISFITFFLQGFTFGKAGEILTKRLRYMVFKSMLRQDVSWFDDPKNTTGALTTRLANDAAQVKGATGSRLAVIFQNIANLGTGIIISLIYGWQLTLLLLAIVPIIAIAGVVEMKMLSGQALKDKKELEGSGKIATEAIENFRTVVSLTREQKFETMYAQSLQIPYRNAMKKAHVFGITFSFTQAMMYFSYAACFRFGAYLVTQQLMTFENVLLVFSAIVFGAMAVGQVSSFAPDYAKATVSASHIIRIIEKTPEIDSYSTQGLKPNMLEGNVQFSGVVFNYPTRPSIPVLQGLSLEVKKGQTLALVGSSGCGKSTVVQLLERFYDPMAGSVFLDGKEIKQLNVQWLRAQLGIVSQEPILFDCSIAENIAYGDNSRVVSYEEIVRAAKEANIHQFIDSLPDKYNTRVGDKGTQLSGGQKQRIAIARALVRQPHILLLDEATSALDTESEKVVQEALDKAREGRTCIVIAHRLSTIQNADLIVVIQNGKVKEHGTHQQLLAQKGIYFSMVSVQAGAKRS
Assay: TP_TRANSPORTER: increase in brain concentration in mdr1a(-/-) mouse
Format: functional, organism-based
Settings: in vivo

>  <compound>
Cc1cccc(NC(=O)NC2N=C(c3ccccc3)c3ccccc3N(C)C2=O)c1 (stereo not given)

>  <Activity>
substrate [+]

$$$$
>  <compound>
CC(C)(C)NC(=O)[C@@H]1CN(Cc2cccnc2)CCN1C[C@@H](O)C[C@@H](Cc1ccccc1)C(=O)N[C@H]1c2ccccc2C[C@H]1O.O

>  <Activity>
substrate [+]

$$$$
>  <compound>
CC(C)(C)NC(=O)[C@@H]1CN(Cc2cc3ccccc3o2)CCN1[C@@H](Cc1ccccc1)[C@@H](O)C[C@@H](Cc1ccccc1)C(=O)NC1c2ccccc2C[C@H]1O (stereo not given in full)

>  <Activity>
substrate [+]

$$$$
>  <compound>
C[C@H](N)c1ccc(N2CCC(c3nc(-c4cccc(C(F)(F)F)c4)c(-c4ccncc4)n3C)CC2)cc1.[O-][Cl+3]([O-])([O-])O

>  <Activity>
substrate [+]

$$$$
>  <compound>
CC[C@]1(O)C[C@@H]2CN(CCc3c([nH]c4ccccc34)[C@@](C(=O)OC)(c3cc4c(cc3OC)N(C)[C@H]3[C@@](O)(C(=O)OC)[C@H](OC(C)=O)[C@]5(CC)C=CCN6CC[C@]43[C@@H]65)C2)C1

>  <Activity>
substrate [+]

$$$$
